Taken from patent US20110105397A1.

- RUN_DESCRIPTION: Nonclinical pharmacokinetics in rats
- Set-up: species or system rat
- MEASUREMENT_SETUP: rat, in vivo; rats, IV bolus; read-out: clearance values
QUANTITY_KIND: clearance

Q. Tell me its clearance given H-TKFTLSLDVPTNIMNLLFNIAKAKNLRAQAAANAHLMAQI-NH2 [SEQ ID NO: 1] as the entry.
A. 42 to 116 mL/min/kg
